target: T1, recombinant human cardiac troponin T (human, UniProt P45379 2-298); test: SPR (Biacore T200, 37 C), Fab captured, cTnT analyte
T1 construct: In the ECL assay the cTnT came from the Troponin T hs CalSet calibrator; also called cTnT; TnT
Each entry below carries its recorded kon.
Please state the figure in M⁻¹ s⁻¹; there is no need to write the unit.

Here's what some known entries look like.
Entry under review: anti-cTnT Fab mutant 12 (Y34I, F60W, Y104F) (Fab, V domains shown, also called combination 12; combination "12") VH: EVQLQQSGPELVKPGASVKMSCKASGYTFTDYIMKWVKQSHGKSLEWIGDINPNNGETWYNQKFKDKATLTVDKSSSTAYMQLNSLTSEDSAVYYCATRVFDFWGQGTTLTVSS VL: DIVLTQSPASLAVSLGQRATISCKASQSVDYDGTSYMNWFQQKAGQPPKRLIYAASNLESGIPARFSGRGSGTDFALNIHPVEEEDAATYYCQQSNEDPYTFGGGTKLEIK . Reported kon? 1.18e+06

Ok, now anti-cTnT Fab mutant 23 (F60W, V101Y + Y104F) (Fab, V domains shown, it was tied to mutant 23 by the printed mutations; also called combination 23) VH: EVQLQQSGPELVKPGASVKMSCKASGYTFTDYYMKWVKQSHGKSLEWIGDINPNNGETWYNQKFKDKATLTVDKSSSTAYMQLNSLTSEDSAVYYCATRYFDFWGQGTTLTVSS VL: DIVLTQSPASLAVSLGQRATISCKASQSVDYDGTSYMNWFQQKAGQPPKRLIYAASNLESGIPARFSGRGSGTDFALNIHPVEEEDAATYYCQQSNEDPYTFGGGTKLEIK 2.8e+06

Ok, now parental anti-cTnT Fab fragment (wildtype TnT M-7 Fab, from antibody 12.1A11.11-7) (Fab, V domains shown, also called wildtype Fab; TnT M-7 (wildtype) Fab) VH: EVQLQQSGPELVKPGASVKMSCKASGYTFTDYYMKWVKQSHGKSLEWIGDINPNNGETFYNQKFKDKATLTVDKSSSTAYMQLNSLTSEDSAVYYCATRVFDYWGQGTTLTVSS VL: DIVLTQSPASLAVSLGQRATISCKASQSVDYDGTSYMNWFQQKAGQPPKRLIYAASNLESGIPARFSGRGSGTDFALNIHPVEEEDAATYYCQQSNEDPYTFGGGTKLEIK 2.5e+06

---
Entry under review: anti-cTnT Fab mutant 13 (Y34I, F60W, V101Y + Y104F) (Fab, V domains shown, also called combination 13) VH: EVQLQQSGPELVKPGASVKMSCKASGYTFTDYIMKWVKQSHGKSLEWIGDINPNNGETWYNQKFKDKATLTVDKSSSTAYMQLNSLTSEDSAVYYCATRYFDFWGQGTTLTVSS VL: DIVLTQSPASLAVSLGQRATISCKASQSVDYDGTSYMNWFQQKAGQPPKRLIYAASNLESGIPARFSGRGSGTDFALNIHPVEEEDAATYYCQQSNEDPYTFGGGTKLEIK . Reported kon? 3e+06

Ok, now anti-cTnT Fab mutant 16 (Y34I, V101Y + Y104F) (Fab, V domains shown, also called combination 16) VH: EVQLQQSGPELVKPGASVKMSCKASGYTFTDYIMKWVKQSHGKSLEWIGDINPNNGETFYNQKFKDKATLTVDKSSSTAYMQLNSLTSEDSAVYYCATRYFDFWGQGTTLTVSS VL: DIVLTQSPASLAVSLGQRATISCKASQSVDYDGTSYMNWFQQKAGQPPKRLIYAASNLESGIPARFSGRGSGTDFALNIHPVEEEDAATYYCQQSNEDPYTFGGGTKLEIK 1.7e+06
